experiment: Pharmacokinetic evaluation in C57BL/6 mice; format: in vivo; details: mouse, plasma; male C57BL/6 mice; IV 2.0 mg/kg and gavage 10 mg/kg study; route per parameter not given; read-out: Half-life T1/2 (converted)
MEASURED_PROPERTY: half-life

I am curious: what half-life value has been reported for `COc1ccccc1[C@H](Cn1nc(C(C)(C)C(=O)O)c(=O)c2c(C)c(-c3ncco3)sc21)OC1CCOCC1` ? 1.85 h
